# ASSAY: CRL2098 osteosarcoma cell growth inhibition, synergistic combos for chromothripsis tumors, BGB or cisplatin IC20 combos (AID 1671454);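 further: cells exposed for 96 h before readout; 0% = vehicle DMSO and 100% = killing by high DMSO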
# RUN CONDITIONS: CRL2098 osteosarcoma cells, drug combinations, at 0.5 µM, stronger effect = higher value
The compounds listed here are annotated with their inhibition.
Your answer is read as %, so omit the unit and give the number.

See these solved cases before continuing.
- COMPOUND: "COC1C(OC(N)=O)C(O)C(Oc2ccc3c(O)c(NC(=O)c4ccc(O)c(CC=C(C)C)c4)c(=O)oc3c2C)OC1(C)C (stereo unspecified)"
  inhibition, %: -21.7
- COMPOUND: "N=c1ccn2c(n1)O[C@H]1[C@H](O)[C@@H](CO)O[C@H]12"
  inhibition, %: 32.1
- COMPOUND: "Cc1ccc2nc(N)[nH]c(=O)c2c1Sc1ccncc1"
  inhibition, %: -63.7
- COMPOUND: "CCOC(=O)Nc1ccc(NCc2ccc(F)cc2)nc1N"
  inhibition, %: -23.9
- COMPOUND: "Nc1ncn([C@H]2C[C@H](O)[C@@H](CO)O2)c(=O)n1"
  inhibition, %: -25.9

What value of measured inhibition is listed for O=c1[nH]c(=O)n([C@H]2C[C@H](O)[C@@H](CO)O2)cc1Br ? -34.2

What value of measured inhibition is listed for CN(N=O)C(=O)NC1C(O)OC(CO)C(O)C1O (stereo unspecified) ? -39.9

What value of measured inhibition is listed for CC1(C(=O)O)CCC2(C)CCC3(C)C(=CC(=O)C4C5(C)CCC(OC(=O)CCC(=O)O)C(C)(C)C5CCC43C)C2C1 (stereo unspecified) ? -75

What value of measured inhibition is listed for N=C(N=C(N)N)N1CCOCC1 ? -24.9

What value of measured inhibition is listed for CN1CCN(c2c(F)cc3c(=O)c(C(=O)O)cn(CCF)c3c2F)CC1 ? 11.6

What value of measured inhibition is listed for C[C@@H](CN1CC(=O)NC(=O)C1)N1CC(=O)NC(=O)C1 ? -49.6

====

# ASSAY: JHH-DIPG-1 glioma cell viability, MIPE5.0 library, CellTiter-Glo luminescence, qHTS (AID 1347067);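 further: cells exposed to compound for 48 hours before readout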
# RUN CONDITIONS: JHH-DIPG-1 glioma viability, CellTiter-Glo ATP luminescence
Inconclusive results are not listed. The source made the active and inactive calls. No cut-off is given here; in the data, nearly all actives have AC50 up to about 26 µM.
Lab note: assign the record to one of 1 (yes) (active), 0 (no) (inactive)

Answered examples (3):
- COMPOUND: "COc1cc(NCc2ccc3nc(N)nc(N)c3c2C)cc(OC)c1OC"
  LABEL VALUE: "1 (yes)"
- COMPOUND: "CC(=O)SC[C@@H](C)C(=O)N1CCC[C@H]1C(=O)N[C@@H](Cc1ccccc1)C(=O)O"
  LABEL VALUE: "0 (no)"
- COMPOUND: "CN1CCCN=C1/C=C/c1cccs1"
  LABEL VALUE: "0 (no)"

What is the recorded call for this compound in the test? O=c1cc(O)c(Cl)c[nH]1 0 (no)

What is the recorded call for this compound in the test? CC(C)(C)NCC(O)c1ccc(O)c(CO)c1 (configuration not stated) 0 (no)

What is the recorded call for this compound in the test? CNC1CCCN(c2c(F)cc3c(=O)c(C(=O)O)cn(C4CC4)c3c2OC)C1 (configuration not stated) 0 (no)

What is the recorded call for this compound in the test? COc1cc(Nc2c(C#N)cnc3cc(OCCCN4CCN(C)CC4)c(OC)cc23)c(Cl)cc1Cl 1 (yes)

What is the recorded call for this compound in the test? O=C(O)c1cc(=O)[nH]c(=O)[nH]1 0 (no)

What is the recorded call for this compound in the test? CCS(=O)(=O)Nc1ccc2[nH]c(O)c(C(=Nc3ccc(CN4CCCCC4)cc3)c3ccccc3)c2c1 1 (yes)

What is the recorded call for this compound in the test? CCC(C)(Oc1ccc(C2(c3ccc(OC(C)(CC)C(=O)O)cc3)CCCCC2)cc1)C(=O)O (configuration not stated) 0 (no)

What is the recorded call for this compound in the test? Cn1c(=O)c2c(ncn2CC2OCCO2)n(C)c1=O 0 (no)

What is the recorded call for this compound in the test? Nc1ncn([C@H]2C[C@H](O)[C@@H](CO)O2)c(=O)n1 0 (no)

====

# ASSAY: growth inhibition of DIPG glioma cells, dose response, cell-based, JHH-DIPG-1, MIPE4.0, CellTiter-Glo, qHTS (AID 1347062);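 on AC50: cells exposed to compound for two days before readout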
# RUN CONDITIONS: JHH-DIPG-1 viability, CellTiter-Glo ATP luminescence
Records with an inconclusive call do not appear. The source made the active and inactive calls. No cut-off is given here; in the data, nearly all actives have AC50 up to about 27 µM.
Lab note: assign the record to one of Yes (active), No (inactive)

Answered examples (2):
- MOLECULE: "C=CCc1cc(OC)c(O)c(C(=O)NCCO)c1"
  LABEL VALUE: "No"
- MOLECULE: "O=C(Nc1cc(C(F)(F)F)cc(C(F)(F)F)c1)c1cc(Cl)ccc1O"
  LABEL VALUE: "Yes"

What is the recorded call for this molecule in the test? NC(=O)Cc1cccc(C(=O)c2ccccc2)c1N No

What is the recorded call for this molecule in the test? CC[C@]1(O)C[C@H]2CN(CCc3c([nH]c4ccccc34)[C@@](C(=O)OC)(c3cc4c(cc3OC)N(C=O)[C@H]3[C@@](O)(C(=O)OC)[C@H](OC(C)=O)[C@]5(CC)C=CCN6CC[C@]43[C@@H]65)C2)C1 Yes

What is the recorded call for this molecule in the test? NCCCC(O)(P(=O)(O)O)P(=O)(O)O No

What is the recorded call for this molecule in the test? Cc1ccc(-n2nc(C(C)(C)C)cc2NC(=O)Nc2ccc(OCCN3CCOCC3)c3ccccc23)cc1 No

What is the recorded call for this molecule in the test? CC1=C(/C=C/C(C)=C/C=C/C(C)=C\C(=O)O)C(C)(C)CCC1 No

What is the recorded call for this molecule in the test? CCC(C)(C)c1ccc(CC(C)CN2C[C@@H](C)O[C@@H](C)C2)cc1 (some centres undefined) No

What is the recorded call for this molecule in the test? O=P(O)(O)C(O)(Cn1ccnc1)P(=O)(O)O No

====

# ASSAY: inhibition of endothelial tube formation, primary screen, imaging, VEGF stimulated, CD31 staining, tube area, NPC library (AID 1117340)
# RUN CONDITIONS: VEGF-stimulated ADSC/ECFC co-culture, at 10 µM, stronger effect = higher value
QUANTITY KIND: tube area decrease (%)
Your answer is read as %, so omit the unit and give the number.

- COMPOUND: "Cc1cc(OI)c(C(C)C)cc1-c1cc(C(C)C)c(OI)cc1C"
  tube area decrease [%]: 4.7
- COMPOUND: "S=C=Nc1ccc(N=C=S)cc1"
  tube area decrease [%]: 100

What value of measured tube area decrease is listed for COc1ccc(CCN(C)CCCN2CCc3cc(OC)c(OC)cc3CC2=O)cc1OC ? -12.6

What value of measured tube area decrease is listed for O=c1[nH]c(=O)n([C@H]2CCCO2)cc1F ? 3.6

What value of measured tube area decrease is listed for CCN(CC)CCOc1ccc2c(c1)C(=O)c1cc(OCCN(CC)CC)ccc1-2 ? 13

What value of measured tube area decrease is listed for CNC(=O)c1c(I)c(NC(C)=O)c(I)c(C(=O)O)c1I ? 4.3

What value of measured tube area decrease is listed for CCCCNc1ccc(C(=O)OCCOCCOCCOCCOCCOCCOCCOCCOCCOC)cc1 ? 4.2

What value of measured tube area decrease is listed for CC[N+](CC)(CC)CCOc1ccc(/C=C/c2ccccc2)cc1 ? 82.5

What value of measured tube area decrease is listed for C=CCNC(N)=S ? -31.3

====

# ASSAY: growth inhibition of BT084 medulloblastoma cells, cell-based, ICGC_MB145, cisplatin and BGB IC40 combos (AID 1671461);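 further: cells exposed to drugs for 96 hours; 0% = vehicle DMSO and 100% = high DMSO full killing control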
# RUN CONDITIONS: drug combinations, cisplatin combination, at 0.5 µM, stronger effect = higher value
Criterion: inhibition meeting or surpassing -10%. Met: Yes. Not met: No.

- COMPOUND: "CN(N=O)C(=O)NC1C(O)OC(CO)C(O)C1O (stereo unspecified)"
  LABEL VALUE: "Yes"
- COMPOUND: "COc1c2ccoc2cc2oc(=O)ccc12"
  LABEL VALUE: "Yes"
- COMPOUND: "O=C(CCCCCCC(=O)Nc1ccccc1)NO"
  LABEL VALUE: "Yes"
- COMPOUND: "C[C@@H](CN1CC(=O)NC(=O)C1)N1CC(=O)NC(=O)C1"
  LABEL VALUE: "No"
- COMPOUND: "CNC1CCCN(c2c(F)cc3c(=O)c(C(=O)O)cn(C4CC4)c3c2OC)C1 (stereo unspecified)"
  LABEL VALUE: "No"

Evaluate Nc1ccc2cc3ccc(N)cc3nc2c1 : inhibition at minimum -10%? No

Evaluate CCn1nc(C(=O)O)c(=O)c2cc3c(cc21)OCO3 : inhibition at minimum -10%? No

Evaluate CN1CCN(c2c(F)cc3c(=O)c(C(=O)O)cn(CCF)c3c2F)CC1 : inhibition at minimum -10%? Yes

Evaluate O=c1[nH]c(=O)n([C@H]2C[C@H](O)[C@@H](CO)O2)cc1C(F)(F)F : inhibition at minimum -10%? No
